The origin of these recorded values is patent US20250195502A1.

# Test system: CFPAC-1 (human pancreatic cancer cell)
# Measurement notes: Cell viability assay (Promega CellTiter-Glo), inhibitory effect on CFPAC-1
# Assay type: cell-based
# Reported conditions: 72 h, 3 days of culture
Field: IC50. Provide a value for each of the compounds that follow.
Report as a plain number; the unit µM is understood.

Incoming: Requested field: IC50. Item: COc1ccc2cc3[n+](cc2c1OCCCBr)CCc1cc2c(cc1-3)OCO2
Outgoing: 7.17

Incoming: Please look up its IC50: COc1ccc2cc3[n+](cc2c1OC(=O)CC12CC4CC(CC(C4)C1)C2)CCc1cc2c(cc1-3)OCO2
Outgoing: 17.1

Incoming: For the compound CCCCCc1c2[n+](cc3c(OC)c(OC)ccc13)CCc1cc3c(cc1-2)OCO3 , what IC50 is on record?
Outgoing: 8.32

Incoming: Quick one: IC50 for CCCCCCCCNc1c(OC)ccc2cc3[n+](cc12)CCc1cc2c(cc1-3)OCO2 ?
Outgoing: 6.07

Incoming: Item COc1ccc2c(CCCc3ccccc3)c3[n+](cc2c1OC)CCc1cc2c(cc1-3)OCO2 has what recorded IC50?
Outgoing: 11.3

Incoming: What IC50 value was documented for this compound, COc1ccc2c(Cc3ccc(C(C)C)cc3)c3[n+](cc2c1OC)CCc1cc2c(cc1-3)OCO2 ?
Outgoing: 4.51

Incoming: # lookup: IC50 of COc1ccc2c(CCc3ccccc3)c3[n+](cc2c1OC)CCc1cc2c(cc1-3)OCO2
Outgoing: 17.9

Incoming: Entry under review: CCCCCCCCCCCC(=O)Oc1c(OC)ccc2cc3[n+](cc12)CCc1cc2c(cc1-3)OCO2 . Reported IC50?
Outgoing: 15.2

Incoming: // lookup IC50 for COc1ccc2c(CCC(C)C)c3[n+](cc2c1OC)CCc1cc2c(cc1-3)OCO2
Outgoing: 21.7

Incoming: Recorded IC50 of COc1ccc2cc3[n+](cc2c1OC/C=C(\C)CCC=C(C)C)CCc1cc2c(cc1-3)OCO2 , please.
Outgoing: 4.6

Incoming: Quick check: IC50 of COc1ccc2c(Cc3ccc(C(C)(C)C)cc3)c3[n+](cc2c1OC)CCc1cc2c(cc1-3)OCO2 ?
Outgoing: 4.95

Incoming: Could you tell me which IC50 is on file for COc1ccc2c(Cc3ccc(OC(F)(F)F)cc3)c3[n+](cc2c1OC)CCc1cc2c(cc1-3)OCO2 ?
Outgoing: 16.9

Incoming: Name the reported IC50 value associated with the compound COc1ccc2cc3[n+](cc2c1NCCc1ccccc1)CCc1cc2c(cc1-3)OCO2
Outgoing: 12.4

Incoming: Which IC50 reading was recorded for the compound CCCCCCc1c2c(OC)c(OC)ccc2cc2[n+]1CCc1cc3c(cc1-2)OCO3 ?
Outgoing: 4.31

Incoming: Which IC50 reading was recorded for the compound CCCCc1c2c(OC)c(OC)ccc2cc2[n+]1CCc1cc3c(cc1-2)OCO3 ?
Outgoing: 13.1
